- Tested on: MOLT-4
- test.method.notes: NCI tumour cell line growth inhibition, 48 h
The source made the active and inactive calls. Rule as the data show it: active = GI50 up to about 1.1 µM and inactive = higher.
Valid outcomes are listed here; reply with one: active, inactive

Request: For `Cc1ccc(/N=c2/oc3c(ccc4ccccc43)nc2Nc2ccc(C)cc2)cc1` , what call appears in the results of this test?
Result: inactive

Request: So what was the verdict on `Cc1ccc(Nc2nc3[nH]ccc3c(=O)[nH]2)cc1` in this test?
Result: inactive

Request: What is the recorded call for this molecule in the test? CSCCC(NC(c1ccccc1)c1ccccc1)[PH](=O)O (stereo unspecified)
Result: inactive

Request: Record lookup: outcome of this test for `COc1cc2c(cc1OC)C(CCN)=NCC2` ?
Result: inactive

Request: Could you please tell me the result logged for CC(CC(C#N)(c1ccccc1)c1ccccc1)N1CCCCC1 (stereo unspecified) in this assay?
Result: inactive

Request: Hi, sorry to bother you, what did the test record for O=C(O)C12C3CCC(O3)C1(C(=O)O)C1CCC2O1 (stereo unspecified) ?
Result: inactive

Request: Please let me know the test result on file for `COC(=O)Nc1nc2cc(C(=O)c3cccs3)ccc2[nH]1` .
Result: active

Request: What call does the record list for `N[C@H](C(=O)O)[C@H]1ON=C(Cl)[C@@H]1O` ?
Result: inactive

Request: State the result this test recorded for `O=C(c1ccccc1)N1C(=O)N(c2ccccc2)C(=N/c2ccccc2)/C1=N\c1ccccc1` .
Result: inactive

Request: What call does the record list for `O=c1oc2c3ccc4ccccc4c3n(CCCN3CCCCC3)c2c2ccccc12` ?
Result: inactive

Request: Could you please tell me the result logged for `CS(=O)(=O)Nc1ccc(NCc2c[nH]c3ccc4ncccc4c23)cc1` in this assay?
Result: inactive

Request: Test call for this molecule, please: O=C(O)CC12C3C4C5C3C1C5C42 (stereo unspecified)
Result: inactive

Request: How did this test come out for CCOC(=O)C1([Se]c2ccccc2)CCCC1=O (stereo unspecified) ?
Result: inactive

Request: Could you check what this test reported for `CC(C)(C)/C(O)=C\c1nc2ccc(C(F)(F)F)cc2[nH]c1=O` ?
Result: inactive

Request: # lookup: test call for `NCCCNOCCCN`
Result: inactive

Request: Which outcome was entered for the molecule CC1(c2cccc(C3CC4(CCC3=O)OCCCCO4)c2)OCCO1 (stereo unspecified) in this test?
Result: inactive

* * *

- Tested on: SW-620
- test.method.notes: NCI tumour cell line growth inhibition, 48 h
Activity calls are given as the source filed them. Cut-off read from the data, not from the text of the source: active = GI50 up to about 1.1 µM and inactive = higher.
Answer with one of the outcomes given here: Y for active, N for inactive

Request: Test call for this compound, please: O=C1NC2c3c(I)sc(I)c3C(=O)C2O1 (stereo unspecified)
Result: N

Request: # fetch the recorded call for `O=C1CN(c2ccccc2)C(=O)CN1CCN1CC(=O)N(c2ccccc2)CC1=O` here
Result: N

Request: Recorded test outcome, item `COc1ccc(CCN2CCN(CCc3ccc(OC)cc3)CC2)cc1`
Result: N

Request: Please indicate how the test categorized `OCCN1CN(c2nc(N3CN(CCO)C3)nc(N3CN(CCO)C3)n2)C1` .
Result: N

Request: Call for entry COC(=O)C(Cc1nc2ccc(Cl)cc2nc1O)C(=O)C(=O)Nc1ccccc1[N+](=O)[O-] (stereo unspecified) :
Result: N

Request: Hi, sorry to bother you, what did the test record for COC(=O)Nc1nc2cc(C(=O)c3cccs3)ccc2[nH]1 [NOCODAZOLE] ?
Result: Y

Request: Please let me know the test result on file for `OCCCCCNc1nc(O)c2[nH]cnc2n1` .
Result: N

Request: How did this test come out for COC(=O)C(CC(=O)c1c[nH]c2ccccc12)c1c[nH]c2ccccc12 (stereo unspecified) ?
Result: N

Request: Given COc1ccc(C2C(=O)c3c(OC)cc(OC)cc3OC2c2cccnc2)cc1 (stereo unspecified) , state the outcome it received in this test.
Result: N

Request: In this assay, the call recorded for Fc1cccc(Cl)c1C1SCc2nc3cc4ccccc4cc3n21 (stereo unspecified) was what?
Result: N

Request: Query: recorded result category for `O=C1C=CC(=O)c2ccc(=O)ccc21` in this test
Result: N

* * *

- Tested on: SK-MEL-28
- test.method.notes: NCI tumour cell line growth inhibition, 48 h
Calls of active or inactive are those of the source. Rule as the data show it: active = GI50 up to about 1.1 µM and inactive = higher.
Hello, when you answer, please use one of the following outcomes: active, inactive

Request: What did the test return for `Cc1ccc(S(=O)(=O)N2CCSCCSCCSCCSCC2)cc1` ?
Result: inactive

Request: Please state the recorded outcome for this molecule: `[O-][N+]1=NC(c2ccccc2)=C1c1ccccc1`
Result: inactive

Request: Called result for Fc1cccc(Cl)c1C1SCc2nc3cc4ccccc4cc3n21 (configuration not stated)
Result: inactive

Request: # lookup: test call for `C/C(=N\NC(=S)N1CCC1)c1ccccn1`
Result: active

Request: Which outcome did this test record for the molecule COC(NC(N)=O)C(=O)O (configuration not stated) ?
Result: inactive

Request: Entry `O=C1CCSSCCC(=O)Nc2ccccc2N1` : call = ?
Result: inactive

Request: Look up the recorded call for `O=C(Oc1cccc2cccnc12)c1cc2cc(CCl)ccc2oc1=O` in this test.
Result: inactive

Request: Each molecule tested received a call. Report the one for COc1ccc(C2C(C(=O)O)=C(CO)Oc3cc4c(cc32)OCO4)cc1 (configuration not stated) .
Result: inactive

Request: I would be grateful if you could indicate the recorded call for O=C1OC(c2ccccc2)=N/C1=C/N1CCCC1C(=O)O (configuration not stated) .
Result: inactive

Request: What call does the record list for `Cc1ccccc1/C=C/C(=O)c1ccccc1` ?
Result: inactive

Request: // outcome(item) with item = O=C1c2cc3c(cc2CC12Cc1cc4c(cc1C2=O)CCC4)CCCC3 (configuration not stated)
Result: inactive

Request: Tell me the assay call for Cc1ccc(S(=O)(=O)NC(=O)NC(Cc2ccc(O)cc2)C(=O)O)cc1 (configuration not stated) please.
Result: inactive

* * *

- System: SF-539
- test.method.notes: NCI tumour cell line growth inhibition, 48 h
Activity calls are given as the source filed them. Rule as the data show it: active = GI50 up to about 1.1 µM and inactive = higher.
Can you tell me GI50 for the items I'm about to list?

Request: Report GI50, nothing else, for this molecule: `O=S(=O)(O)c1ccc(-c2c3nc(c(-c4ccc(S(=O)(=O)O)cc4)c4ccc([nH]4)c(-c4ccc(S(=O)(=O)O)cc4)c4nc(c(-c5ccc(S(=O)(=O)O)cc5)c5ccc2[nH]5)C=C4)C=C3)cc1`
Result: > 100 µM (inactive)

Request: Identify the reported GI50 for the following entry. CC(C)(C)NC(=O)N1N=C(c2ccccc2)C1c1ccccc1 (stereo not given)
Result: 22.1 µM (inactive)

Request: Consider the molecule [O-][S+]1CC[S+]([O-])CC[S+]([O-])CC1 (stereo not given) . State its measured GI50.
Result: > 100 µM (inactive)

Request: Give me measured GI50, please, for this molecule: `O=c1[nH]nc(Nc2ccccc2)c2nnn(Cc3ccccc3)c12`
Result: 54.2 µM (inactive)

Request: Please give measured GI50 of the following entry: COc1ccc2c(c1)O[C@@H]1[C@@H](OC3OC(CO)C(O)C(O)C3O)Oc3cc(OC)c(OC)cc3[C@]1(O)C2=O (stereo not given in full)
Result: > 100 µM (inactive)

Request: Give GI50 for `O=C1C(=Cc2c(O)cc(O)cc2O)C(=O)c2ccccc21`
Result: > 42.7 µM (inactive)

Request: For the molecule `Cc1cc2[nH]c3c(C#N)c(-c4ccccc4)c(/N=N/c4ccc(F)cc4)c(=O)n3c2cc1C` , give its reported GI50.
Result: > 100 µM (inactive)

Request: Return value of GI50 for input O=C(O)CC12C3C4C5C3C1C5C42 (stereo not given) , no commentary.
Result: > 100 µM (inactive)

Request: Please give measured GI50 of the following entry: O=C(O)C1C(C(=O)O)C23CC2(C(=O)O)C2(C(=O)O)CCC3=C3CCCC312 (stereo not given)
Result: 4.67 µM (inactive)

Request: Output measured GI50 for this item: `COc1cc(CCCOC(=O)/C=C/c2ccc(O)c(O)c2)cc(O)c1O`
Result: 28.4 µM (inactive)

* * *

Exercise: for every item that follows, state its recorded GI50.
- Tested on: Malme-3M
- test.method.notes: NCI tumour cell line growth inhibition, 48 h
Calls of active or inactive are those of the source. Cut-off read from the data, not from the text of the source: active = GI50 up to about 1.1 µM and inactive = higher.

Request: Lab note: Malme-3M assay, enter GI50 for COc1ccc(OC)c(C2Cc3cnc4nc(N)nc(N)c4c3C2)c1 (stereo not given) here
Result: 20.8 µM (inactive)

Request: Specify GI50 for Nc1nc2c(c(=O)[nH]1)C(c1ccccc1)CC(=O)N2 (stereo not given) , system Malme-3M.
Result: > 100 µM (inactive)

Request: Given `CC(=O)c1ccc(N2CCN(C3=C(Cl)C(=O)c4c(O)ccc(O)c4C3=O)CC2)cc1` , report its GI50 on Malme-3M.
Result: 11.4 µM (inactive)

Request: Retrieve GI50 on Malme-3M; query COc1cccc(C2c3cc4c(cc3OC(N3CCCCC3)C2C)OCO4)c1OC (stereo not given)
Result: 11.9 µM (inactive)

Request: Write down measured GI50 (Malme-3M) for this compound. `Cc1ccc2c(n1)C(=O)C=CC2=O`
Result: 5.79 µM (inactive)

Request: Report GI50 on Malme-3M for this entry: `Cc1nc(-c2ccc(/N=C/c3ccc(N(CCOS(C)(=O)=O)CCOS(C)(=O)=O)cc3C)cc2)cs1`
Result: 28.9 µM (inactive)

Request: Look up and report GI50, with Malme-3M as system, for COc1ccc(C2C(C(=O)O)=C(CO)Oc3cc4c(cc32)OCO4)cc1 (stereo not given)
Result: > 100 µM (inactive)

Request: Using Malme-3M as the test system, report measured GI50 of CCCCCCCCCCCCOCC(COP(=O)(O)OCCN=[N+]=[N-])OC(=O)CCCCCCCCCCC (stereo not given) .
Result: > 100 µM (inactive)

Request: Answer with GI50 of CCCOc1nc(N)c2cnn(C3CCCCO3)c2n1 (stereo not given) measured for Malme-3M.
Result: > 100 µM (inactive)

Request: Find the measured GI50 of `CCCc1c(OC)c(=O)c2c(O)cc(OC)c3c4c(OC)cc(O)c5c(=O)c(OC)c(CCC)c(c1c23)c54` with Malme-3M as test system.
Result: 2.43 µM (inactive)
